# System: Zymomonas mobilis
# RUN_DESCRIPTION: Antibacterial activity against Zymomonas mobilis ATCC 10988 assessed as bacterial growth inhibition
# Format: functional
Peptide text beside a SMILES is read from it. * marks the point of attachment. Undecanoyl = CCCCCCCCCCC(=O)*; Nonanoyl = CCCCCCCCC(=O)*
Can you tell me MIC for the items I'm about to list?
One number for each entry, in µM.

Value sought for every listed compound: MIC.
1. CCCCCCCCC(=O)NCC(=O)N[C@@H](CC(C)C)C(=O)N[C@@H](CC(C)C)C(=O)N[C@@H](CCCCN)C(=O)N[C@H](C(=O)N[C@H](C(=O)N[C@@H](CCCCN)C(=O)N[C@@H](CCCCN)C(=O)N[C@@H](CC(C)C)C(=O)N[C@@H](CC(C)C)C(N)=O)[C@@H](C)CC)[C@@H](C)CC (Nonanoyl-GLLKIIKKLL-NH2)
2. CCCCCCCCCCC(=O)NCC(=O)N[C@@H](CC(C)C)C(=O)N[C@@H](CC(C)C)C(=O)N[C@@H](CCCCN)C(=O)N[C@@H](Cc1ccccc1)C(=O)N[C@H](C(=O)N[C@@H](CCCCN)C(=O)N[C@@H](CCCCN)C(=O)N[C@@H](CC(C)C)C(=O)N[C@@H](CC(C)C)C(N)=O)[C@@H](C)CC (Undecanoyl-GLLKFIKKLL-NH2)

7.75
12.7

====

Can you tell me HC10 for the items I'm about to list?
# System: Erythrocyte
# RUN_DESCRIPTION: Hemolytic activity in mouse RBC
# Type: toxicity, cell-based
Numbered stars: 1 amine (or outer) side, 2 acyl side, 3 side chain; on linkers, the order of the positions; unused ones are H or OH. Square brackets hold non-standard residues; d marks the D form. Peptide text beside a SMILES is read from it. N(1-naphthylmethyl)Gly = O=C(O)CNCc1cccc2ccccc12; X3 = O=C(CN(CC(c1ccccc1)c1ccccc1)[*:1])[*:2]; N(iPr)Gly = CC(C)NCC(=O)O

State, for Erythrocyte, measured HC10 of the compound listed here: CC[C@H](C)[C@H](NC(=O)[C@H](CCCNC(=N)N)NC(=O)[C@H](CCCCN)NC(=O)[C@H](CC(C)C)NC(=O)[C@H](CC(C)C)NC(=O)CNCc1cccc2ccccc12)C(=O)N[C@@H](CCCCN)C(=O)N[C@H](C(=O)N[C@@H](CC(C)C)C(=O)N[C@@H](CC(C)C)C(N)=O)[C@@H](C)O (H-[N(1-naphthylmethyl)Gly]LLKRIKTLL-NH2)
> 50 µM

State, for Erythrocyte, measured HC10 of the compound listed here: CC[C@H](C)[C@H](NC(=O)[C@H](CCCNC(=N)N)NC(=O)[C@H](CCCCN)NC(=O)[C@H](CC(C)C)NC(=O)[C@H](CC(C)C)NC(=O)CNC(C)C)C(=O)N[C@@H](CCCCN)C(=O)N[C@H](C(=O)N[C@@H](CC(C)C)C(=O)N[C@@H](CC(C)C)C(N)=O)[C@@H](C)O (H-[N(iPr)Gly]LLKRIKTLL-NH2)
> 50 µM

Continue with the next compound.
State, for Erythrocyte, measured HC10 of the compound listed here: CC[C@H](C)[C@H](NC(=O)[C@H](CCCNC(=N)N)NC(=O)[C@H](CCCCN)NC(=O)[C@H](CC(C)C)NC(=O)[C@H](CC(C)C)NC(=O)CNCC(c1ccccc1)c1ccccc1)C(=O)N[C@@H](CCCCN)C(=O)N[C@H](C(=O)N[C@@H](CC(C)C)C(=O)N[C@@H](CC(C)C)C(N)=O)[C@@H](C)O (H-[X3]LLKRIKTLL-NH2)
> 50 µM

====

Can you tell me MIC for the items I'm about to list?
# Test system: Enterococcus faecium
# RUN_DESCRIPTION: Antibacterial activity against vancomycin resistant Enterococcus faecium NCTC 12204 assessed as reduction in bacterial growth by microdilution broth method
# Type: functional
Square brackets hold non-standard residues; d marks the D form. Peptide text beside a SMILES is read from it. 2Nal = N[C@@H](Cc1ccc2ccccc2c1)C(=O)O; Cha = N[C@@H](CC1CCCCC1)C(=O)O
Answers are plain numbers, in µM.

# count of solved cases: 4
Could you please provide reported MIC for CC(C)C[C@H](NC(=O)[C@H](CC(C)C)NC(=O)[C@@H](NC(=O)[C@H](CCCCN)NC(=O)[C@H](Cc1ccc2ccccc2c1)NC(=O)[C@H](CCCCN)NC(=O)[C@H](CCCCN)NC(=O)[C@H](CC(C)C)NC(=O)[C@H](CC1CCCCC1)NC(=O)CN)[C@@H](C)O)C(N)=O (H-G[Cha]LKK[2Nal]KTLL-NH2) ? Thanks!
9.5

Could you please provide reported MIC for CC(C)C[C@H](NC(=O)[C@H](CC(C)C)NC(=O)[C@H](CCCCN)NC(=O)[C@H](CCCCN)NC(=O)[C@H](Cc1ccc2ccccc2c1)NC(=O)[C@H](CCCNC(=N)N)NC(=O)[C@H](CCCCN)NC(=O)[C@H](CC(C)C)NC(=O)[C@H](CCCCN)NC(=O)CN)C(N)=O (H-GKLKR[2Nal]KKLL-NH2) ? Thanks!
13.7

Could you please provide reported MIC for CC(C)C[C@H](NC(=O)CN)C(=O)N[C@@H](CC(C)C)C(=O)N[C@@H](CCCCN)C(=O)N[C@@H](CCCCN)C(=O)N[C@@H](Cc1ccc2ccccc2c1)C(=O)N[C@@H](CCCCN)C(=O)N[C@H](C(=O)N[C@@H](CC(C)C)C(=O)N[C@@H](CC1CCCCC1)C(N)=O)[C@@H](C)O (H-GLLKK[2Nal]KTL[Cha]-NH2) ? Thanks!
4.6

Could you please provide reported MIC for CC[C@H](C)[C@H](NC(=O)[C@H](CCCCN)NC(=O)[C@H](CCCCN)NC(=O)[C@H](CC(C)C)NC(=O)[C@H](CC1CCCCC1)NC(=O)CN)C(=O)N[C@@H](CCCCN)C(=O)N[C@@H](CCCCN)C(=O)N[C@@H](CC(C)C)C(=O)N[C@@H](CC1CCCCC1)C(N)=O (H-G[Cha]LKKIKKL[Cha]-NH2) ? Thanks!
3.2

---
Could you please provide reported MIC for CC[C@H](C)[C@H](NC(=O)[C@H](CCCNC(=N)N)NC(=O)[C@H](CCCCN)NC(=O)[C@H](CC(C)C)NC(=O)[C@H](CC(C)C)NC(=O)CN)C(=O)N[C@@H](CCCCN)C(=O)N[C@@H](CCCCN)C(=O)N[C@@H](CC(C)C)C(=O)N[C@@H](CC1CCCCC1)C(N)=O (H-GLLKRIKKL[Cha]-NH2) ? Thanks!
9.5

====

Can you tell me MIC for the items I'm about to list?
# System: Enterococcus faecium
# RUN_DESCRIPTION: Antibacterial activity against vancomycin resistant Enterococcus faecium ATCC 700221 assessed as inhibition of bacterial growth incubated for 48 hrs by CLSI-based broth microdilution assay
# Format: functional
Square brackets hold non-standard residues; d marks the D form. Peptide text beside a SMILES is read from it. 2Nal = N[C@@H](Cc1ccc2ccccc2c1)C(=O)O; hIle = CC[C@H](C)C[C@H](N)C(=O)O; Cha = N[C@@H](CC1CCCCC1)C(=O)O
Be sure to follow the number with its unit.

# count of solved cases: 4
Could you please provide reported MIC for CC[C@H](C)C[C@H](NC(=O)[C@H](CCCNC(=N)N)NC(=O)[C@H](CCCCN)NC(=O)[C@H](CC(C)C)NC(=O)[C@H](CC(C)C)NC(=O)CN)C(=O)N[C@@H](CCCCN)C(=O)N[C@H](C(=O)N[C@@H](CC(C)C)C(=O)N[C@@H](Cc1ccc2ccccc2c1)C(N)=O)[C@@H](C)O (H-GLLKR[hIle]KTL[2Nal]-NH2) ? Thanks!
9.5 µM

Could you please provide reported MIC for CC[C@H](C)C[C@H](NC(=O)[C@H](CCCNC(=N)N)NC(=O)[C@H](CCCCN)NC(=O)[C@H](CC1CCCCC1)NC(=O)[C@H](CC(C)C)NC(=O)CN)C(=O)N[C@@H](CCCCN)C(=O)N[C@H](C(=O)N[C@@H](CC(C)C)C(=O)N[C@@H](CC(C)C)C(N)=O)[C@@H](C)O (H-GL[Cha]KR[hIle]KTLL-NH2) ? Thanks!
28.4 µM

Could you please provide reported MIC for CC[C@H](C)C[C@H](NC(=O)[C@H](CCCNC(=N)N)NC(=O)[C@H](CCCCN)NC(=O)[C@H](CC(C)C)NC(=O)[C@H](CC(C)C)NC(=O)CN)C(=O)N[C@@H](CCCCN)C(=O)N[C@H](C(=O)N[C@@H](CC1CCCCC1)C(=O)N[C@@H](CC(C)C)C(N)=O)[C@@H](C)O (H-GLLKR[hIle]KT[Cha]L-NH2) ? Thanks!
28.4 µM

Could you please provide reported MIC for CC[C@H](C)[C@H](NC(=O)[C@H](CCCNC(=N)N)NC(=O)[C@H](CCCCN)NC(=O)[C@H](Cc1ccc2ccccc2c1)NC(=O)[C@H](CC(C)C)NC(=O)CN)C(=O)N[C@@H](CCCCN)C(=O)N[C@H](C(=O)N[C@@H](CC(C)C)C(=O)N[C@@H](CC(C)C)C(N)=O)[C@@H](C)O (H-GL[2Nal]KRIKTLL-NH2) ? Thanks!
9.5 µM

Value sought for every listed compound: MIC.
1. CC[C@H](C)[C@H](NC(=O)[C@H](Cc1ccccc1)NC(=O)[C@H](CCCCN)NC(=O)[C@H](CC(C)C)NC(=O)[C@H](CC(C)C)NC(=O)CN)C(=O)N[C@@H](CCCCN)C(=O)N[C@@H](Cc1c[nH]c2ccccc12)C(=O)N[C@@H](CC(C)C)C(=O)N[C@@H](CC(C)C)C(N)=O (H-GLLKFIKWLL-NH2)
2. CC(C)C[C@H](NC(=O)[C@H](CC(C)C)NC(=O)[C@@H](NC(=O)[C@H](CCCCN)NC(=O)[C@H](CC1CCCCC1)NC(=O)[C@H](CCCNC(=N)N)NC(=O)[C@H](CCCCN)NC(=O)[C@H](CC(C)C)NC(=O)[C@H](CC(C)C)NC(=O)CN)[C@@H](C)O)C(N)=O (H-GLLKR[Cha]KTLL-NH2)
3. CC[C@H](C)[C@H](NC(=O)[C@H](CCCCN)NC(=O)[C@H](CCCCN)NC(=O)[C@H](CC(C)C)NC(=O)[C@H](CC(C)C)NC(=O)CN)C(=O)N[C@@H](CCCCN)C(=O)N[C@@H](Cc1c[nH]c2ccccc12)C(=O)N[C@@H](CC(C)C)C(=O)N[C@@H](CC(C)C)C(N)=O (H-GLLKKIKWLL-NH2)

1: 0.8 µM; 2: 6 µM; 3: 22.1 µM
